Ref: patent US20240247080A1

# reported EC50 CreLuc hNPY2R 0.5% hP; entries follow
tested.on: T1, human neuropeptide Y2 receptor (human, UniProt P49146 1-381)
T1 sequence (looked up): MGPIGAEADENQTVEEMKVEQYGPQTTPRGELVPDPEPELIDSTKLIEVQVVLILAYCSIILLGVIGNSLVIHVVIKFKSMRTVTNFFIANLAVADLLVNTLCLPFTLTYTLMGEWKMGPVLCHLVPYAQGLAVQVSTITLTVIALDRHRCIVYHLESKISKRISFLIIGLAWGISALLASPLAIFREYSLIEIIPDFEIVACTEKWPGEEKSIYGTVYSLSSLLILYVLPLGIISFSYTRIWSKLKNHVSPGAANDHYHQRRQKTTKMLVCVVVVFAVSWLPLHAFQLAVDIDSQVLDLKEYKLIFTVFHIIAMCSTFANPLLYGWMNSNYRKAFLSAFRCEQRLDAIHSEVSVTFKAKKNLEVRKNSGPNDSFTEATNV
assay.name: cell-based or functional assay
Starred links: 1 amine or outer side, 2 acyl side, 3 side chain; linkers in the order of their positions; H or OH if unused. Non-standard residues stand in square brackets, D forms with d. Groups on a side chain read outwards from the residue. No end group written: not given here. *: point of attachment. C18 diacid = O=C(O)CCCCCCCCCCCCCCCCC(=O)*; γGlu = O=C(O)[C@H](CCC(=O)[*:2])N[*:1]; εLys = N[C@@H](CCCCN[*:1])C(=O)[*:2]; AEEA = NCCOCCOCC(=O)O; Aib = CC(C)(N)C(=O)O
assay.readout: EC50 CreLuc hNPY2R 0.5% hP (nM)

- Y[Aib]EGTFTSDYSI[Aib]LEKQAQ[Aib]AFVQWLIK([εLys-γGlu-γGlu-γGlu-γGlu-γGlu-C18 diacid])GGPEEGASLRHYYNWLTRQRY-NH2 [Compound 143]: 13.1
- Y[Aib]EGTFTSDYSI[Aib]LEKQAQ[Aib]AFVEWLIK([AEEA-AEEA-γGlu-γGlu-γGlu-γGlu-C18 diacid])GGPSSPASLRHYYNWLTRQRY-NH2 [Compound 158]: 15.8
